# SUBJECT OF TEST: Human recombinant PKCε (Homo sapiens, UniProt Q02156)
# Sequence (Q02156 whole entry): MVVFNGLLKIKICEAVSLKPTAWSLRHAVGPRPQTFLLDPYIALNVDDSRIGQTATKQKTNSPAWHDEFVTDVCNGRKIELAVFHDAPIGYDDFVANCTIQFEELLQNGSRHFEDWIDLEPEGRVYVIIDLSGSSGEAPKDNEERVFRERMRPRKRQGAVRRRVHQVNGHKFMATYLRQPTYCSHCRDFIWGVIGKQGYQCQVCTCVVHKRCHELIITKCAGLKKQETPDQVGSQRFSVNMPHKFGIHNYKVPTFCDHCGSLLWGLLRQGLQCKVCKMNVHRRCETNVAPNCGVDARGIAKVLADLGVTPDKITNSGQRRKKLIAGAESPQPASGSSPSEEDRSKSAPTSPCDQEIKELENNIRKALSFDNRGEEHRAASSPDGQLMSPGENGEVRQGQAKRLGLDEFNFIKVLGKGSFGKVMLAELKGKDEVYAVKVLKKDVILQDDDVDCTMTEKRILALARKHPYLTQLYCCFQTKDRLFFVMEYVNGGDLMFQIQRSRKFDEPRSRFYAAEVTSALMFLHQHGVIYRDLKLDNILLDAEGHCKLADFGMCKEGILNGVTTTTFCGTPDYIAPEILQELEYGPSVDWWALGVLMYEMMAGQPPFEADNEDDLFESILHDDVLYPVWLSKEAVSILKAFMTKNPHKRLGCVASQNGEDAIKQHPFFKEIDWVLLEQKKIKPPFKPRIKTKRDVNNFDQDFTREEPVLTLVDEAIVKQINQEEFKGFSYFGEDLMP
# ASSAY NAME: Protein Kinase Cε Assay
READOUT TYPE: IC50
Lab note: write values as number then unit, every time.

Look up IC50: `Cc1cccc2c(C3=C(c4nc(N5CCNC6(CC6)C5)cc5ccccc45)C(=O)NC3=O)c[nH]c12`
18 nM

====

# SUBJECT OF TEST: Human recombinant PKCθ (Homo sapiens)
# Sequence (Q04759 whole entry): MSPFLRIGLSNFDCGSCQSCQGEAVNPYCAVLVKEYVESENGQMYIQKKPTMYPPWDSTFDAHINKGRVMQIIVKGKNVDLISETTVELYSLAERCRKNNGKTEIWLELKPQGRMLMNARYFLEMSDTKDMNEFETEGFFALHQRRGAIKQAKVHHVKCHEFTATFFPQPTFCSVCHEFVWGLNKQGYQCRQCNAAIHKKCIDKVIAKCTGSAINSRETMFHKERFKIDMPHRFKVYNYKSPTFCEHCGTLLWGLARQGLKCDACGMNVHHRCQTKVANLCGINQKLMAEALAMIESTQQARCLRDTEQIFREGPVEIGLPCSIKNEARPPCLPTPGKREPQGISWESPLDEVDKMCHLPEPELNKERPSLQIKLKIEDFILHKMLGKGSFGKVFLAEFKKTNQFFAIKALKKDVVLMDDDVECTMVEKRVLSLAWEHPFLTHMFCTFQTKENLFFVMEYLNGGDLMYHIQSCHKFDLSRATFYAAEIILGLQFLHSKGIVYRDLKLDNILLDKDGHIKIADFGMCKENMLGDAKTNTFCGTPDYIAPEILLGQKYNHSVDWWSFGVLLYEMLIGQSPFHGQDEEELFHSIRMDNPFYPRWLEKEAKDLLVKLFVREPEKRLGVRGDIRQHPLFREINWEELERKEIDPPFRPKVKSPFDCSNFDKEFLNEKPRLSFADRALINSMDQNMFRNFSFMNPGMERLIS
# ASSAY NAME: Protein Kinase C θ Assay
READOUT TYPE: IC50 (nM)
# unit: nM | format: bare number

Look up IC50: `Cc1cccc2c(C3=C(c4nc(N5CCNC6(CC6)C5)cc5ccccc45)C(=O)NC3=O)c[nH]c12`
12.1
